System: Photobacterium phosphoreum
Test: Antibacterial activity against Photobacterium phosphoreum at 100 ug/mL by paper disk method
Format: functional, organism-based
The source made the active and inactive calls. No cut-off for these calls is given here.

COMPOUND	Activity
CC(=O)N[C@H]1[C@H](O[C@@H]2CO[C@@H](O[C@H]3CC[C@@]4(C)[C@@H](CCC5=C6[C@H](O)C[C@H]([C@H](C)CC(=O)C=C(C)C)[C@@]6(C)CC[C@@]54O)C3(C)C)[C@H](O[C@@H]3O[C@H](CO[C@@H]4O[C@H](CO)[C@@H](O)[C@H](O)[C@H]4O[C@@H]4O[C@H](CO)[C@@H](O)[C@H](O)[C@H]4O)[C@@H](O)[C@H](O)[C@H]3NC(C)=O)[C@H]2O)O[C@H](CO)[C@H](O)[C@@H]1O [SARASINOSIDE H1]	inactive
CO[C@@H]1C[C@H]([C@H](C)CC(=O)C=C(C)C)[C@@]2(C)CC[C@@]3(O)C(=C12)CC[C@H]1C(C)(C)[C@@H](O[C@@H]2OC[C@@H](O[C@@H]4O[C@H](CO)[C@H](O)[C@H](O)[C@H]4NC(C)=O)[C@H](O)[C@H]2O[C@@H]2O[C@H](CO[C@@H]4O[C@H](CO)[C@@H](O)[C@H](O)[C@H]4O[C@@H]4O[C@H](CO)[C@@H](O)[C@H](O)[C@H]4O)[C@@H](O)[C@H](O)[C@H]2NC(C)=O)CC[C@@]13C [SARASINOSIDE H2]	inactive
CO[C@H]1C[C@H]([C@H](C)CC(=O)C=C(C)C)[C@@]2(C)CC[C@@]3(O)C(=C12)CC[C@H]1C(C)(C)[C@@H](O[C@@H]2OC[C@@H](O[C@@H]4O[C@H](CO)[C@H](O)[C@H](O)[C@H]4NC(C)=O)[C@H](O)[C@H]2O[C@@H]2O[C@H](CO[C@@H]4O[C@H](CO)[C@@H](O)[C@H](O)[C@H]4O[C@@H]4O[C@H](CO)[C@@H](O)[C@H](O)[C@H]4O)[C@@H](O)[C@H](O)[C@H]2NC(C)=O)CC[C@@]13C [SARASINOSIDE I2]	inactive
